Test: small-molecule binders of probe aNOTCH2, primary screen, biochemical, small-molecule microarray, 635/667 nm fluorescence (AID 1121);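 note: score merges feature fluorescence read at 667 nm with its signal to noise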
Conditions: higher = more signal
Documented composite z-score across a set of molecules
Enter a number only.

// solved cases for composite z-score follow
>>> measuredvalue("O=C1[C@H]2[C@H]3[C@H](O)[C@H](O)CC(=NOCc4ccccc4)[C@@H]3CC[C@H]2C(=O)N1Cc1ccccc1")
-0.14
>>> measuredvalue("COC(=O)[C@@]1(Cc2ccc(OC)cc2)[C@H]2c3cc(C(=O)N4CCCC4)n(Cc4cc(F)c(F)c(F)c4)c3C[C@H]2CN1C(=O)c1ccccc1")
0.882
>>> measuredvalue("C=C(/C(=C/C[C@H](OC(=O)c1ccncc1)c1ccc(OCCO)cc1)c1cnc2ccccc2c1)C(C)C")
-0.118
>>> measuredvalue("CCOC(=O)[C@H](Cc1ccccc1)NC(=O)CCC1CC(OC(=O)NCc2ccc3c(c2)OCO3)CC2(CCCC(COC(=O)NCc3ccccc3)O2)O1 (stereo partly specified)")
-0.0728
>>> measuredvalue("CC(=O)C[C@H](O)[C@@H](NC(=O)OC(C)(C)C)C(C)C")
-0.14
>>> measuredvalue("Cc1ccc(F)cc1S(=O)(=O)N[C@@H]1CCN(Cc2ccc(CC(C)C)cc2)C1")
-0.208

Query string: # get_value(readout='composite z-score', item= "CCN1C(=O)[C@H]2[C@H]3[C@H](O)[C@H](O)CC(=NOCc4ccccc4)[C@H]3CC[C@H]2C1=O" )
Result string: -0.041

Query string: Item under review: "Cc1ccc(S[C@]2(C(=O)NCC(F)(F)F)CC(=O)N(Cc3ccccc3Cl)[C@@H]2c2ccc(CO)cc2I)cc1" . Reported composite z-score?
Result string: -0.134
